system: M14 melanoma; assay: NCI-60 one-dose screen, 48 h (100 = growth as untreated, 0 = no growth, -100 = all killed); details: 10 µM unless noted
About 83,000 compounds went through this panel and 20% of them were active in at least one assay; those are over-represented in the sample as a whole.
# Lookup of reported growth keyed by entry
quantity: growth (%)

- C[C@H](CCC[C@H](C)OS(=O)(=O)c1ccccc1)OS(=O)(=O)c1ccccc1: 106
- O=S(=O)(OCCOS(=O)(=O)c1ccccc1)c1ccccc1: 92.3
- Cc1cc(CO)c(O)c(CO)c1: 97.6
- CN(C)c1ccc(/C=C/C(=O)c2ccc(NC(N)=O)cc2)cc1: 86.8
- O=[N+]([O-])c1c(O)c(CNCCCO)cc(CNCCCO)c1O: 107
- COc1cccc(C(=O)O)c1OC: 103
- O=C1C=CC(=O)C2=C1CCCC2: 96.4
- c1ccc(Oc2c3ccccc3nc3ccccc23)cc1: -13.2
- O=C(O)c1cccc(-n2ncc(Cl)c(Cl)c2=O)c1: 101
- COc1cccc(N=CNc2cccc(OC)c2)c1: 104
- OCCNc1ccccc1: 97.8
- CSc1nsc(N)n1: 97.6
- COC1C(=O)CCC2(CO2)C1(O)C1(C)OC1CCC(C)C (stereo not drawn): 56.5
- Cn1c(=O)[nH]c2ccccc2c1=O: 107
- COC(c1ccc2c(c1)OCO2)C(C)Br (stereo not drawn): 97.1
- CC1CN(CCO)CC(C)O1 (stereo not drawn): 108
- CCC(C)c1c(N)n(S(=O)(=O)c2ccc(C)cc2)oc1=O (stereo not drawn): 105
- COc1ccc(NNS(=O)(=O)O)cc1: 92.5
- C=CCC(OC(C)=O)c1ccc(OC)c(OC)c1 (stereo not drawn): 108
- O=c1[nH]c(=O)c2cc(Cl)cc(Cl)c2[nH]1: 102
- CN(C)c1ccc2c(N(C)C)cc(N(C)C)nc2c1: 81.7
- CC(C)N(C(=O)c1ccccc1)C(C)C: 97
- COc1cccc2c1Cc1ccccc1-2: 102
- O=C1Nc2ccccc2/C1=C\c1ccccc1O: 85.6
- CC1CC2C3CCC4=CC(=O)CCC4(C)C3CCC2(C)C1(O)C(=O)CO (stereo not drawn): 111
- CCOC(=O)c1c(C)[nH]c(C)c1C=O: 100
- CCCOCc1cn[nH]n1: 106
- Cc1ccc([N+](=O)[O-])c(C)n1: 110
